# Test system: Fibroblast
# test details: Multiplex assay against human fibroblast
# Format: toxicity, cell-based
# assay setup: 24 h, 1 µM, compound concentration 1 uM, replicate 2
API: label(entry) gives Criterion met if the entry's Population Membrane Permeable-Phenotype (%) is strictly smaller than 3%; on equality or larger values it gives Criterion not met.

CN(C)C(=O)/C(C#N)=C/c1ccc(-c2nc3cnc4[nH]ccc4c3n2C2CCCCC2)o1 | Criterion met

Continue with the next compound.
Input: Given "Cc1[nH]c(/C=C2\C(=O)Nc3ccc(S(=O)(=O)N(C)c4cccc(Cl)c4)cc32)c(C)c1C(=O)N1CCN(C)CC1" , is recorded Population Membrane Permeable-Phenotype (%) strictly lower than 3%?
Output: Criterion not met
